Reported endpoint: melting point

Reference set (5 entries):
| Compound | melting point |
| --- | --- |
| CCCCOc1cc(CCS(=O)(=O)NC(=O)OCc2ccccc2)n(Cc2ccc(Cl)cc2Cl)n1 [Example 136] | 99 to 101 °C |
| COCCOc1ccc(CCCNS(C)(=O)=O)c(Oc2ncc(C(F)(F)F)cc2Cl)c1 | 89 to 90 °C |
| COCCOc1ccc(CCCNS(=O)(=O)CCCc2ccccc2)c(Oc2ncc(C(F)(F)F)cc2Cl)c1 | 101.8 to 102 °C |
| CCCCCS(=O)(=O)NC(=O)CCc1ccc(OCCC2(C)OCCO2)cc1Oc1ncc(C(F)(F)F)cc1Cl | 96.5 to 97.5 °C |
| C/C(=C\c1ccc(OC(C)C)cc1Oc1ncc(C(F)(F)F)cc1Cl)C(=O)NS(=O)(=O)NCCOC(C)C | 137.5 to 137.7 °C |

Record `COCCOc1ccc(COC(=O)NS(=O)(=O)Nc2ccc(Cl)cc2)c(Oc2ncc(C(F)(F)F)cc2Cl)c1` . Reported melting point: 159 °C (dec.)

Record `COCCOc1ccc(CCC(=O)NS(=O)(=O)c2ccc(F)cc2)c(Oc2ncc(C(F)(F)F)cc2Cl)c1` . Reported melting point: 136 to 138 °C

====

- Tested on: KKAy mice
- Assay procedure: Blood glucose and blood lipid (triglyceride) lowering action in mice
- Format: in vivo
- Experimental parameters: Mus musculus, 4TO7, po, 0.01% in powder diet, 4 to 7 days, plasma glucose relative to non-administration group = 100%, read-out: hypoglycemic action (%)
- Source text: The test compound was mixed with a powder diet (CE-2, CLEA JAPAN, INC.) at a proportion of 0.01% (0.03% for the compounds of Examples 1, 2, 12, 81, 94, 96, 129 and 143, and 0.005% for the compounds of Examples 28, 30 and 37) and freely given to KKAy mice (9 to 14-week-old, 5 mice per group) which are obesity non-insulin-dependent diabetes (type-2 diabetes) models, for 4 to 7 days. During this period, water was freely given. The blood was drawn from the orbital venous plexus. […]
Reported endpoint: response vs control in vivo at 0.01 % (%)
Output spec: scalar in %, unitless text.

Record `COCCOc1ccc(/C=C/COC(=O)NS(=O)(=O)N2CCCC2)c(Oc2ncc(C(F)(F)F)cc2Cl)c1` . Reported response vs control in vivo at 0.01 %: 45

Record `CCCCCS(=O)(=O)NC(=O)OCc1ccc(OCCOC)cc1Oc1ncc(C(F)(F)F)cc1Cl` . Reported response vs control in vivo at 0.01 %: 64

Record `CCCCCS(=O)(=O)NC(=O)/C=C/c1ccc(OCCC2OCCO2)cc1Oc1ncc(C(F)(F)F)cc1Cl` . Reported response vs control in vivo at 0.01 %: 54

Record `CC(C)OCCNS(=O)(=O)NC(=O)OCCCc1ccc(OCCO)cc1Oc1ncc(C(F)(F)F)cc1Cl` . Reported response vs control in vivo at 0.01 %: 49

Record CCCCCS(=O)(=O)NC(=O)/C=C/c1ccc(OCCO)cc1Oc1ncc(C(F)(F)F)cc1Cl [Example 218, monohydrate] . Reported response vs control in vivo at 0.01 %: 81

Record `COCCOc1ccc(CCCOC(=O)NS(=O)(=O)NCCc2ccccn2)c(Oc2ncc(C(F)(F)F)cc2Cl)c1` . Reported response vs control in vivo at 0.01 %: 70

Record `CC(C)Oc1ccc(CCCOC(=O)NS(=O)(=O)NCCc2ccccn2)c(Oc2ncc(C(F)(F)F)cc2Cl)c1` . Reported response vs control in vivo at 0.01 %: 55

====

- Tested target: PPARγ-RXRα heterodimer (Homo sapiens)
- Sequence (P37231 29-505): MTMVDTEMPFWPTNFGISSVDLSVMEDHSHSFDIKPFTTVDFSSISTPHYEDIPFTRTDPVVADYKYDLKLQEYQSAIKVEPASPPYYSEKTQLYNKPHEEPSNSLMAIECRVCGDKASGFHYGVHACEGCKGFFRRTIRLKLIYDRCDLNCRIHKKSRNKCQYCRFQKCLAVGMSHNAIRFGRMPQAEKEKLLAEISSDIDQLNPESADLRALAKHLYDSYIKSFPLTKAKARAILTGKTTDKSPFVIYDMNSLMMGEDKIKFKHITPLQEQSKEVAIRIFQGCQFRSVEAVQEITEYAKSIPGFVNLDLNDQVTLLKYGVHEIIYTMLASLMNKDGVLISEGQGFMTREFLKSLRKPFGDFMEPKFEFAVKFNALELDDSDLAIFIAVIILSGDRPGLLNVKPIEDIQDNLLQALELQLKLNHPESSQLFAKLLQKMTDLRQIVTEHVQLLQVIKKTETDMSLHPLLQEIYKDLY
- Sequence (P19793 whole entry partner): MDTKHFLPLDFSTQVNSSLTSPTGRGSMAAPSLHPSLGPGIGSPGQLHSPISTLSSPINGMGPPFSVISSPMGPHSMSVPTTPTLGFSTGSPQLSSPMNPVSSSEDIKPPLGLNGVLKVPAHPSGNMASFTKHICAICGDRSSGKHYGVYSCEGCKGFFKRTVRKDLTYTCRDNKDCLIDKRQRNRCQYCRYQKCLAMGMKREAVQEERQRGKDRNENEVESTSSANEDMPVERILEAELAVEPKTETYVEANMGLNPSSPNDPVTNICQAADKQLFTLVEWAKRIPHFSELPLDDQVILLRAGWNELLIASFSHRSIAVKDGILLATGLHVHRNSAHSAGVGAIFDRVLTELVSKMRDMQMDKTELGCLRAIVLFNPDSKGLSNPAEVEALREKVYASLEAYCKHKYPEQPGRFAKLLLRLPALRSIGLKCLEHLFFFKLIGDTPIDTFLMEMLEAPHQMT
- Assay procedure: PPARγ-RXRα heterodimer ligand activity (luciferase reporter, PPARγ:RXRα:4ERPP/CHO-K1 cells)
- Experimental parameters: concentration showing 50% of the maximum luciferase induction rate; CHO-K1 reporter cells, one day incubation
pEC50: −log10 of the molar value.
Reported endpoint: pEC50

Reference set (6 entries):
| Entry smiles | Tested target | Reported endpoint | Measured number |
| --- | --- | --- | --- |
| CCCCCS(=O)(=O)NC(=O)CCc1ccc(OCCCOCCOC)cc1Oc1ncc(C(F)(F)F)cc1Cl | PPARγ-RXRα heterodimer (Homo sapiens) | pEC50 | 8.41 |
| COCCOc1ccc(CCCOC(=O)NS(=O)(=O)N2Cc3ccccc3C2)c(Oc2ncc(C(F)(F)F)cc2Cl)c1 | PPARγ-RXRα heterodimer (Homo sapiens) | pEC50 | 8.33 |
| CCCCCNS(=O)(=O)NC(=O)/C(C)=C/c1ccc(OCCOC)cc1Oc1ncc(C(F)(F)F)cc1Cl | PPARγ-RXRα heterodimer (Homo sapiens) | pEC50 | 8.07 |
| COCCOc1ccc(CCCOC(=O)NS(=O)(=O)NCCc2ccccn2)c(Oc2ncc(Cl)cc2Cl)c1 | PPARγ-RXRα heterodimer (Homo sapiens) | pEC50 | 7.66 |
| COCCOc1ccc(CCCOC(=O)NS(=O)(=O)NCCc2ccccn2)c(Oc2ncc(C(F)(F)F)cc2Cl)c1 | PPARγ-RXRα heterodimer (Homo sapiens) | pEC50 | 8.40 |
| CCCCCS(=O)(=O)NC(=O)/C=C/c1cc(OC(C)C)nn1Cc1ccc(Cl)cc1Cl | PPARγ-RXRα heterodimer (Homo sapiens) | pEC50 | 7.70 |

[a] COCCOc1ccc(CCCOC(=O)NS(=O)(=O)NCCOC(C)C)c(Oc2ncc(C(F)(F)F)cc2Cl)c1
[b] CC(C)CCS(=O)(=O)NC(=O)/C=C/c1cc(OC(C)C)nn1Cc1ccc(C(F)(F)F)cc1Cl
Lookup: // which entry has the larger pEC50 value, a or b ? Answer format: the label of the selected item.
Found: a

====

Listed compounds paired with reported melting point

| Entry smiles | melting point |
| --- | --- |
| CCCCCS(=O)(=O)NC(=O)OCc1cc(OC(C)C)nn1Cc1ccc(Cl)cc1Cl | 126 to 128 °C |
| CCCCCS(=O)(=O)NC(=O)/C(C)=C/c1ccc(OCCCOC)cc1Oc1ncc(Cl)cc1Cl | 116 to 116.8 °C |
| COCCOc1ccc(CCCOC(=O)NS(=O)(=O)NCCc2ccccc2)c(Oc2ncc(C(F)(F)F)cc2Cl)c1 | 110 to 113 °C |
| CCCCCS(=O)(=O)NC(=O)/C=C/c1ccc(OCCOC)cc1Cc1ncc(Br)s1 | 88.5 to 89.1 °C |
| CCCCCS(=O)(=O)NC(=O)/C=C/c1ccc(OCCOC(C)=O)cc1Oc1ncc(C(F)(F)F)cc1Cl | 141 to 144 °C |
| CCOCC(COCC)Oc1ccc(CCCOC(=O)NS(=O)(=O)NCCOC(C)C)c(Oc2ncc(C(F)(F)F)cc2Cl)c1 | 68 to 69.2 °C |
| CCCCCS(=O)(=O)NC(=O)CCc1ccc(OCCCOC)cc1Oc1ncc(C(F)(F)F)cc1Cl | 115 to 115.2 °C |
| CC(C)CCS(=O)(=O)NC(=O)/C=C/c1cc(OCC2CC2)nn1Cc1ccc(C(F)(F)F)cc1Cl | 155.5 to 157.5 °C |

Record `CC(C)CCS(=O)(=O)NC(=O)CCc1cc(OC(C)C)nn1Cc1ccc(Cl)cc1Cl` . Reported melting point: 143 to 145 °C

====

- Test system: KKAy mice
- Assay procedure: Blood glucose and blood lipid (triglyceride) lowering action in mice
- Type: in vivo
- Experimental parameters: Mus musculus, 4TO7, po, 0.03% in powder diet, 4 to 7 days, plasma glucose relative to non-administration group = 100%, read-out: hypoglycemic action (%)
- From the text: The test compound was mixed with a powder diet (CE-2, CLEA JAPAN, INC.) at a proportion of 0.01% (0.03% for the compounds of Examples 1, 2, 12, 81, 94, 96, 129 and 143, and 0.005% for the compounds of Examples 28, 30 and 37) and freely given to KKAy mice (9 to 14-week-old, 5 mice per group) which are obesity non-insulin-dependent diabetes (type-2 diabetes) models, for 4 to 7 days. During this period, water was freely given. The blood was drawn from the orbital venous plexus. […]
Listed compounds paired with reported response vs control in vivo at 0.03 %
Output spec: scalar in %, unitless text.

| Compound | Tested target | Measured number |
| --- | --- | --- |
| CCCCCS(=O)(=O)NC(=O)/C=C/c1cc(OC(C)C)nn1Cc1ccc(Cl)cc1Cl [Example 94] | KKAy mice | 48 |
| CCCCCS(=O)(=O)NC(=O)CCc1ccc(OC(C)C)cc1Oc1ncc(C(F)(F)F)cc1Cl [Example 2] | KKAy mice | 50 |
| CCCCCS(=O)(=O)NC(=O)CCc1ccc(OCCOC)cc1Oc1ncc(C(F)(F)F)cc1Cl [Example 1] | KKAy mice | 47 |
| CCCCCS(=O)(=O)NC(=O)/C=C/c1ccc(OCCOC)cc1Oc1ncc(C(F)(F)F)cc1Cl [Example 12] | KKAy mice | 46 |
| CCCCCS(=O)(=O)NC(=O)CCc1cc(OC(C)C)nn1Cc1ccc(C(F)(F)F)cc1Cl [Example 143] | KKAy mice | 47 |

Record CCCCCS(=O)(=O)NC(=O)CCc1cc(C(C)C)nn1Cc1ccc(C(F)(F)F)cc1Cl [Example 96] . Reported response vs control in vivo at 0.03 %: 53

Record CCCCOC(=O)NS(=O)(=O)CCc1cc(OCCCC)nn1Cc1ccc(Cl)cc1Cl [Example 129] . Reported response vs control in vivo at 0.03 %: 45

Record CCCCCS(=O)(=O)NC(=O)CCc1cc(OC(C)C)nn1Cc1ccc(Cl)cc1Cl [Example 81] . Reported response vs control in vivo at 0.03 %: 44
